ASSAYED_TARGET: AXL (Homo sapiens, UniProt P30530)
Sequence (P30530 26-894): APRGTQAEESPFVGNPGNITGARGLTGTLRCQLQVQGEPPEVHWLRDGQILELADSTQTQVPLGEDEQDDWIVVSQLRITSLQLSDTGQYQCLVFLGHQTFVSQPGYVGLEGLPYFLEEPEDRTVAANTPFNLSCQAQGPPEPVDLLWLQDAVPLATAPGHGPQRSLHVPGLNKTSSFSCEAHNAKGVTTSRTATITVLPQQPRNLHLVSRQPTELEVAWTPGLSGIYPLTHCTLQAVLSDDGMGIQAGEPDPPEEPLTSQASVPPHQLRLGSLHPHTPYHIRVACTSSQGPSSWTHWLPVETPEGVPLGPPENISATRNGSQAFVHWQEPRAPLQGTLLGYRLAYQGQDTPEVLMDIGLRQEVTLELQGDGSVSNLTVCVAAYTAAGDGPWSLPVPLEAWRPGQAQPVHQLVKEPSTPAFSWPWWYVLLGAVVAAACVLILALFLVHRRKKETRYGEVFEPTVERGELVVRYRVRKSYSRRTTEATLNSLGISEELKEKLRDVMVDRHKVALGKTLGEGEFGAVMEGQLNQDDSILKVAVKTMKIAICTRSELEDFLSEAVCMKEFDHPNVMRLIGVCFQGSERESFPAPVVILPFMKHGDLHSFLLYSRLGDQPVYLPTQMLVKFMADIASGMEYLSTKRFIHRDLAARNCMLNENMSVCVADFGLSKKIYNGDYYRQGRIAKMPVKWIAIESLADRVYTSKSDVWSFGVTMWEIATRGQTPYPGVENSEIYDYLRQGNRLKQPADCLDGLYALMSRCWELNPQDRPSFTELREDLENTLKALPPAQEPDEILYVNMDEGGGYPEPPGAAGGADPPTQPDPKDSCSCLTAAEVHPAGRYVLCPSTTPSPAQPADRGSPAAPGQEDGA
ASSAY_REMARKS: 33PanQinase Activity Assay, AXL
CONDITION_CONTEXT: recombinant human protein kinase, 1 μM [γ-33P]-ATP, 30° C. 80 minutes
Answer each item with its documented IC50.
Please state the figure in µM; there is no need to write the unit.

Quick note, IC50 for "COc1ccc(-c2cc3ncnc(Sc4nnnn4C4CC4)c3s2)cc1" landed at 9.76

Quick note, IC50 for "COc1ccc(-c2cc3ncnc(Sc4nnnn4C)c3s2)cc1" landed at 5.8

Quick note, IC50 for "c1ccc(-c2nc3c(Sc4nnc(-c5ccco5)o4)ncnc3[nH]2)cc1" landed at 40

Quick note, IC50 for "Fc1ccc(-c2cc3ncnc(Sc4ccccn4)c3s2)cc1" landed at 22.6
